MEASURED_TARGET: human amylin receptor (hAmyR3) (Homo sapiens, UniProt O60896+P30988)
Construct: host or cells: BHK cells (Hollex-1 line: human calcitonin receptor (a) + CRE-Luc), further transfected with human RAMP3
Sequence (P30988 25-474): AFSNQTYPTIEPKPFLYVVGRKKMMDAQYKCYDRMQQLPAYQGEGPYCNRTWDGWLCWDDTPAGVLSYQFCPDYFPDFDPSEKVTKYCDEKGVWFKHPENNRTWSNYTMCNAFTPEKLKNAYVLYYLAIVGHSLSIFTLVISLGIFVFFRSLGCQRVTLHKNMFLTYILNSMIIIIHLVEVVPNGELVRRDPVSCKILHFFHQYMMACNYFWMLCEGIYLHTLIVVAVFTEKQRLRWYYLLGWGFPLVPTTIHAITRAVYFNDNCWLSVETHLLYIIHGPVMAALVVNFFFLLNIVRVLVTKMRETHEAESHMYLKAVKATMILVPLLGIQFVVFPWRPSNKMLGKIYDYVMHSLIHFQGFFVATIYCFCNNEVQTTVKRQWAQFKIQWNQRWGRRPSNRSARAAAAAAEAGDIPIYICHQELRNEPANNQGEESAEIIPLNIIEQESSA
Sequence (O60896 24-148): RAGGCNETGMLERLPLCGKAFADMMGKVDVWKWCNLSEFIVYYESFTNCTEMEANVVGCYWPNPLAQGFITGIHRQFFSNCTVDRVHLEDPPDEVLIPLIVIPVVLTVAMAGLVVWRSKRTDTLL
MEASUREMENT_PROTOCOL: Human amylin receptor in vitro potency assay (CRE-luciferase reporter, BHK cells);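 note: BHK cells expressing human calcitonin receptor plus RAMP3 (amylin-3 receptor) with a CRE-luciferase reporter, agonist activity read as luminescence from cAMP-driven transcription, 7-point serial dilutions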
Format: cell-based
MEASUREMENT_CONDITIONS: Table 4a; BHK hAmyR3/CRE-Luc cells, 3 hours; read-out: Human AmyR3 potency [EC50 (pM)]
Starred links: 1 amine or outer side, 2 acyl side, 3 side chain; linkers in the order of their positions; H or OH if unused. Non-standard residues stand in square brackets, D forms with d. Groups on a side chain read outwards from the residue. *: point of attachment. Hexadecanoyl(16-SO3H) = O=C(CCCCCCCCCCCCCCCS(=O)(=O)O)*; C20 diacid = O=C(O)CCCCCCCCCCCCCCCCCCC(=O)*; C18 diacid = O=C(O)CCCCCCCCCCCCCCCCC(=O)*; C16 diacid = O=C(O)CCCCCCCCCCCCCCC(=O)*; γGlu = O=C(O)[C@H](CCC(=O)[*:2])N[*:1]; Desaminohistidyl = O=C(CCc1c[nH]cn1)*; X2 = O=C(CCCCCCCCCCCCCCCCc1nnn[nH]1)*; AEEA = NCCOCCOCC(=O)O; Aib = CC(C)(N)C(=O)O
# EC50 per record follows
Answer in pM, number only, no unit symbol.

• H-H[Aib]EGTFTSDVSSYLEGQAAK([AEEA-AEEA-γGlu-C18 diacid])EFIAWLVRGRGGQEPGQEPEASELSTAALGRLSAELHELATLPRTETGSGSP-NH2 [Compound 0019] = 26.5
• HAEGTFTSDVSSYLEEK([AEEA-AEEA-γGlu-C18 diacid])AAREFIEWLVRGRGEASELSTAALGRLSAELHELATLPRTETGSGSP-NH2 [Compound 0472] = 24
• H[Aib]EGTFTSDVSSYLEEQAARK([AEEA-AEEA-γGlu-C16 diacid])FIAWLVRGRGGK([AEEA-AEEA-γGlu-C16 diacid])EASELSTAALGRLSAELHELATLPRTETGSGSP-NH2 [Compound 0074] = 60.9
• H-H[Aib]EGTFTSDVSK([AEEA-AEEA-γGlu-C16 diacid])YLEEQAARK([AEEA-AEEA-γGlu-C16 diacid])FIEWLVRGAAEASELSTAALGRLSAELHELATLPRTETGSGSP-NH2 [Compound 0629] = 97.5
• H-H[Aib]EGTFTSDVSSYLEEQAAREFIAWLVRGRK([AEEA-AEEA-γGlu-C18 diacid])GGGGSGGGEASELSTAALGRLSAELHELATLPRTETGSGSP-NH2 [Compound 0637] = 14.1
• Desaminohistidyl-[Aib]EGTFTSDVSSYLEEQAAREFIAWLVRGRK([γGlu-C20 diacid])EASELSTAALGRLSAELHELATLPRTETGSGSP-NH2 [Compound 0142] = 15.4
• H-H[Aib]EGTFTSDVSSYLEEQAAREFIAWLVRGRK([AEEA-AEEA-γGlu-Hexadecanoyl(16-SO3H)])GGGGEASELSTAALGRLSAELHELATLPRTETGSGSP-NH2 [Compound 0654] = 11.3
• H-H[Aib]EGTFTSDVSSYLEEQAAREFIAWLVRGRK([AEEA-AEEA-γGlu-C18 diacid])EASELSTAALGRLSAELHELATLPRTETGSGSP-NH2 [Compound 0115] = 22.8
• H-H[Aib]EGTFTSDVSSYLEGQAAREFIAWLVRGRK([AEEA-AEEA-γGlu-C18 diacid])GQEPGQAPEASELSTAALGRLSAELHELATLPRTETGSGSP-NH2 [Compound 0083] = 46.2

With those in mind, consider the next substance.
Query block: Which EC50 is reported for this substance? H-H[Aib]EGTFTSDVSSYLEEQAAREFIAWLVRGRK([AEEA-AEEA-γGlu-X2])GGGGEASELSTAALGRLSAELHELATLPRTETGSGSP-NH2 [Compound 0655]
Result block: 11.4
